Tested on: Fibrinogen (Alexa647-labelled)
assay-explanation: Alexa647-fibrinogen binding to printed small molecules – biochemical, small-molecule microarray, 635/667 nm fluorescence, artefact control for SMM control-protein annotation, profiling panel (AID 1131);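 note: z-score merges 667 nm fluorescence with per-spot signal-to-noise over triplicate slides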
measurement-conditions: fibrinogen-A647 binding fluorescence, higher = more signal
Classification field: rule met = composite z-score at or over 0.4; rule not met = composite z-score under 0.4.

Lookup: Hello, I need to know if `COc1ccc([Si](C)(C)[C@@H]2[C@@H](CC(=O)N3CCC[C@H]3CO)O[C@]3(C(=O)N(Cc4cccc(N5C(=O)COc6ccccc65)c4)c4ccccc43)[C@H]2C)cc1` has measured composite z-score not below 0.4. Thanks!
Found: rule met

Lookup: Hello, I need to know if [N-]=[N+]=Nc1ccccc1C[C@]1(C(=O)NCC(O)CO)COC(c2ccc(OCCCO)cc2)=N1 (stereo partly specified) has measured composite z-score not below 0.4. Thanks!
Found: rule met

Lookup: Hello, I need to know if `C=CCNC(=O)[C@@H]1[C@H]2C(=O)O[C@H](c3ccccc3)[C@H](c3ccccc3)N2[C@H](c2ccccc2OCCO)[C@@]12C(=O)N(C(=O)OCCOC)c1ccc(C#CC3(O)CCCCCC3)cc12` has measured composite z-score not below 0.4. Thanks!
Found: rule met

Lookup: Hello, I need to know if O=C1OCCC=C[C@H]2OC34C=CCN(c5ccc6ccccc6c5)C(=O)[C@H]3N(CCCO)C(=O)[C@@H]4C12 (stereo partly specified) has measured composite z-score not below 0.4. Thanks!
Found: rule not met

Lookup: Hello, I need to know if `O=C1C[C@]2(c3ccc([N+](=O)[O-])cc3)C(=O)N(C3CC3)c3cc(CO)ccc3[C@H]2N1CC12CC3CC(CC(C3)C1)C2` has measured composite z-score not below 0.4. Thanks!
Found: rule not met

* * *

target-or-test-system: Left-right determination factor 2 (Homo sapiens) (UniProt O00292)
Sequence (O00292 whole entry, looked up): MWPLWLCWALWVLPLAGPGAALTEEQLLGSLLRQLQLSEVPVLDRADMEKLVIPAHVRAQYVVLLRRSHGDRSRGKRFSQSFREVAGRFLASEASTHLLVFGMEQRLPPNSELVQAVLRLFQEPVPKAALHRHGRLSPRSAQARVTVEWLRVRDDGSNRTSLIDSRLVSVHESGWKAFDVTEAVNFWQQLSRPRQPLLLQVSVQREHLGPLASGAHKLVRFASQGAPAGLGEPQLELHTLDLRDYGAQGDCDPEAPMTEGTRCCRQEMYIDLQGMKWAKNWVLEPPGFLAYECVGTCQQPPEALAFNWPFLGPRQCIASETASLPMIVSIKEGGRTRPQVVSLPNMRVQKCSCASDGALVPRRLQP
assay-explanation: small molecules binding LEFTY2 protein – biochemical, small-molecule microarray, 635 nm fluorescence scan, primary screen (AID 1110)
measurement-conditions: higher = more signal
outcome-measure: composite z-score
Write the number on its own, no unit after it.

The reported value for `COc1ccc([Si](C)(C)[C@H]2[C@H](CC(=O)N(CCO)Cc3ccccc3)O[C@@]3(C(=O)N(C)c4c(Br)cc(C)cc43)[C@@H]2C)cc1` in terms of composite z-score is 1.12

The reported value for CC1CC/C=C\[C@H]2OC34C=CCN(C(C)C)C(=O)[C@H]3N(CCO)C(=O)[C@@H]4C2C(=O)O1 (some centres undefined) in terms of composite z-score is -1.6

The reported value for `COC(=O)c1c(CC[C@@H](CO)NC(=O)N[C@@H](C)Cn2cc(-c3ccccn3)nn2)oc(C(C)=O)c1C(=O)OC` in terms of composite z-score is 0.328

The reported value for `COC(=O)[C@@]1(Cc2ccc(F)cc2)[C@H]2c3cc(C(=O)N4CCCC4)n(CCc4c[nH]c5ccccc45)c3C[C@H]2CN1C(=O)c1ccccc1` in terms of composite z-score is 0.304

* * *

assay-explanation: small molecules captured by biotinylated probe aFGF10 – biochemical, small-molecule microarray, fluorescence 635/667, stem cell growth factor project, primary screen (AID 1071);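 note: score merges 667 nm spot intensity and signal to noise from triplicate slides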
measurement-conditions: higher = more signal
outcome-measure: composite z-score
Write the number on its own, no unit after it.

The reported value for CC1CC/C=C\[C@H]2OC34C=CCN(c5ccc(Cl)cc5)C(=O)[C@H]3N(C(C)CO)C(=O)[C@]4(C)C2C(=O)O1 (stereo partly specified) in terms of composite z-score is -0.172

The reported value for `C=CC[C@]1(C(=O)N2CCCCC2)N=C(c2ccc(OCCCO)cc2)O[C@H]1c1ccccc1CN=[N+]=[N-]` in terms of composite z-score is 0.546

The reported value for CCCCN1CC=CC23O[C@@H]4/C=C\CCCOC(=O)C4[C@H]2C(=O)N(CCO)[C@@H]3C1=O (stereo partly specified) in terms of composite z-score is -0.615

The reported value for CCCCCN1CC=CC23O[C@@H]4C=CCCOC(=O)C4[C@H]2C(=O)N(CCCCCCO)[C@@H]3C1=O (stereo partly specified) in terms of composite z-score is 0.0401

The reported value for `C[N+](C)(C)CCCC[C@@H]1NC(=O)[C@@H]2C[C@H](C(=O)NCCCCCCN)[C@H](c3cccc(OCCO)c3)N2C1=O` in terms of composite z-score is 0.494

The reported value for `O=C(NCc1ccc(F)cc1)[C@H]1C[C@H]2C(=O)NCC(=O)N2[C@H]1c1ccc(O)cc1` in terms of composite z-score is -0.162

The reported value for O=C1OCCC/C=C\[C@H]2OC34C=CCN(c5ccc6ccccc6c5)C(=O)[C@H]3N(CCO)C(=O)[C@@H]4C12 (stereo partly specified) in terms of composite z-score is -0.818

The reported value for `COC(=O)[C@@]1(Cc2ccc(F)cc2)[C@H]2c3cc(C(=O)N(C)C)n(CCc4ccc(OC)c(Br)c4)c3C[C@H]2CN1C(=O)c1ccccc1` in terms of composite z-score is 0.675

The reported value for CC(CO)N1C(=O)[C@@H]2[C@H]3C(=O)OCC=C[C@H]3OC23C=CCN(Cn2nnc4ccccc42)C(=O)[C@@H]13 (stereo partly specified) in terms of composite z-score is -0.729

The reported value for `[N-]=[N+]=NCc1ccccc1C[C@@]1(C(N)=O)N=C(c2ccc(OCCCO)cc2)O[C@@H]1c1ccccc1` in terms of composite z-score is -0.257

The reported value for `C#CCN(Cc1ccccc1Br)[C@H](/C=C/c1ccccc1)[C@@H](O)Cc1ccccc1` in terms of composite z-score is -0.738

The reported value for `CCCC[C@@H](O)C1=C(COc2ccccc2)C[C@H]2C(=O)N(Cc3ccccc3)C(=O)[C@H]2[C@H]1CO` in terms of composite z-score is 0.479

The reported value for `O=C1O[C@@H](c2ccccc2)[C@@H](c2ccccc2)N2[C@@H](c3ccc(OCCO)cc3)[C@]3(C(=O)Nc4ccc(C#CC5=CCCCC5)cc43)[C@@H](C(=O)NC[C@H](O)c3ccccc3)[C@H]12` in terms of composite z-score is 0.6

The reported value for C=CCC(OC(C)=O)[C@@H]1[C@@H](N(Cc2ccc(-c3ccccc3)cc2)C(=O)c2ccc(-c3ccccc3)cc2)c2cc(OCCCO)ccc2N1C(=O)c1ccc2ccccc2c1 (stereo partly specified) in terms of composite z-score is 0.178

The reported value for `COc1ccc([Si](C)(C)[C@@H]2[C@@H](CCO)O[C@]3(C(=O)N(Cc4ccccc4)c4ccc(N5CCOC5=O)cc43)[C@H]2C)cc1` in terms of composite z-score is 0.65

The reported value for `CCC#CCN(Cc1ccccc1Br)[C@H](/C=C/C1CC1)[C@@H](O)Cc1ccccc1` in terms of composite z-score is -0.548

The reported value for `COC(=O)[C@@]1(Cc2ccc(F)cc2)[C@H]2c3cc(C(=O)N(C)C)n(Cc4ccc(OC(F)(F)F)cc4)c3C[C@H]2CN1C(=O)c1ccccc1` in terms of composite z-score is 0.369

The reported value for `COCCCNC(=O)[C@@H]1c2ccccc2C(=O)N(C(C)C)[C@H]1c1ccc(CO)cc1` in terms of composite z-score is -0.373

The reported value for `Cc1ccc(S[C@]2(C(=O)NCC(F)(F)F)CC(=O)N(Cc3cc(C(F)(F)F)cc(C(F)(F)F)c3)[C@@H]2c2ccc(CO)cc2I)cc1` in terms of composite z-score is -0.41

The reported value for CC(C)c1ccc(NN2C(C(O)c3ccc(F)cc3)C=CC3C(=O)N(c4ccccc4)C(=O)C32)cc1 (stereo unspecified) in terms of composite z-score is 1

The reported value for `[N-]=[N+]=Nc1ccccc1C[C@]1(C(=O)O)COC(c2ccc(OCCCO)cc2)=N1` in terms of composite z-score is 0.518

The reported value for `C[N+](C)(C)CCCCCCNC(=O)[C@@H]1C[C@@H]2C(=O)N3CCC[C@H]3C(=O)N2[C@@H]1c1ccc(O)cc1` in terms of composite z-score is 0.571

The reported value for `C=CC[C@@]1(C(=O)NCCCOC)N=C(c2ccc(OCCCO)cc2)O[C@@H]1c1ccccc1` in terms of composite z-score is -0.562

The reported value for `COCC(=C=CC[C@H](O)c1ccccc1OCCO)C[C@H](O)c1ccccn1` in terms of composite z-score is 0.4

The reported value for `COc1cc2c(cc1O)C=[N+](Cc1sc3ccccc3c1Cl)CC2` in terms of composite z-score is 0.1

The reported value for `C#CCN([C@@H](Cc1ccccc1)C(=O)OC)[C@@H](/C=C/C1CC1)[C@H](O)Cc1ccccc1` in terms of composite z-score is -0.181

The reported value for OCCCC1=CC(c2ccc(CN3CCCC3)cc2)N(Cc2cc3c(cc2Br)OCO3)CC1 (stereo unspecified) in terms of composite z-score is -0.373

The reported value for `CCOC(=O)C[C@H]1[C@H](OC(=O)c2ccc(C(=O)c3ccccc3)cc2)[C@@H](NC(=O)C2CCCCC2)c2cc(OCCCO)ccc2N1C(=O)c1ccc2ccccc2n1` in terms of composite z-score is 0.735

The reported value for `[N-]=[N+]=Nc1ccccc1[C@@H]1OC(c2ccc(OCCCO)cc2)=N[C@]1(Cc1ccccc1)C(=O)N1CCCCC1` in terms of composite z-score is 0.9

The reported value for `C=CCN1C(=O)[C@]2(CCC(=O)OC(C)(C)C)N=C(c3ccc(OCCCO)cc3)O[C@@H]2c2ccccc21` in terms of composite z-score is -0.475

The reported value for `CCCC[C@@H](O)C1=C(COC)C[C@H]2C(=O)N(C)C(=O)[C@H]2[C@H]1CO` in terms of composite z-score is 0.466
